# Test system: SK-MEL-5 melanoma
# ASSAY PROCEDURE: NCI tumour cell line growth inhibition, 48 h; in the data active = GI50 below about 0.43 µM; inactive = the rest
Your response should consist of one outcome taken from t = active, f = inactive

For COc1ccc(-c2cn(-c3ccc(Cl)cc3)c(=S)[nH]2)cc1OC , what call appears in the results of this test?
f

Give the logged outcome of this assay for the following molecule: O=C(/C=C/c1ccccn1)c1ccccc1O
f

// outcome(item) with item = CN(C)c1ccc(/C=C(\C#N)c2cc3ccccc3n2C)cc1
f

For this molecule, state the assay outcome: COc1ccc(-c2cc(-c3ccc(O)cc3)nc3nc(=S)[nH]c(N)c23)cc1
f

Record request — test call for CC1(C)CC(=O)C2=C(C1)NC(SSC1=C(C#N)C(c3ccc(Br)cc3)C3=C(CC(C)(C)CC3=O)N1)=C(C#N)C2c1ccc(Br)cc1 (centres undefined)
f

// outcome(item) with item = O=C(Nc1ncc(Cc2ccccc2)s1)c1ccc2c(c1)OCCO2
t

For this molecule, state the assay outcome: O=C(c1ccccc1)c1ccc(Cl)c([N+](=O)[O-])c1
f

Kindly provide the recorded test outcome for the following molecule: O=C(CSc1nc2ccc([N+](=O)[O-])cc2[nH]1)Nc1cccc(Cl)c1
f

I would be grateful if you could indicate the recorded call for CC1(C)CC[C@]2(C(=O)n3ccnc3)CC[C@]3(C)[C@H](C(=O)C=C4[C@@]5(C)C=C(C#N)C(=O)C(C)(C)[C@@H]5CC[C@]43C)[C@@H]2C1 .
t

Source: PubChem BioAssay (NCI)
